The reported measurements were obtained from ChEMBL document CHEMBL1154249.

Catalogue of MIC values
System: Staphylococcus aureus
assay: Antibacterial activity against Staphylococcus aureus ATCC 6538 after 24 hrs by broth dilution assay
Format: functional
reported_conditions: Staphylococcus aureus, ATCC 6538, 24 h; read-out: MIC
Give a bare numeral; the unit µg/mL is implied.

compound="CC(C)c1cc2c(c(O)c1O)[C@@]13CCCC(C)(C)[C@@H]1C[C@@H]2OC3=O [CARNOSOL]" reported_value=25

Input: What measured MIC goes with CC(C)C1=CC2=C(C(=O)C1=O)[C@@]13CCCC(C)(C)[C@@H]1[C@H](OC3=O)[C@H]2O [ROSMAQUINONE] ?
Output: 20

Input: What measured MIC goes with CC(C)C1=CC2=C[C@H]3OC(=O)[C@@]4(CCCC(C)(C)[C@H]34)C2=C(O)C1=O [SAGEQUINONE METHIDE A] ?
Output: 20

Input: What measured MIC goes with CO/N=C(\C(=O)N[C@@H]1C(=O)N2C(C(=O)O)=C(COC(C)=O)CS[C@H]12)c1csc(N)n1 [CEFOTAXIME] ?
Output: 1.25

Input: What measured MIC goes with CO[C@H]1C2=C(C(=O)C(=O)C(C(C)C)=C2)[C@@]23CCCC(C)(C)[C@@H]2[C@@H]1OC3=O [ROSMAQUINONE B] ?
Output: 40

Input: What measured MIC goes with CC(C)c1cc2c(c(O)c1O)[C@@]13CCCC(C)(C)[C@@H]1[C@@H](O)[C@@H]2OC3=O [ISOROSMANOL] ?
Output: 40

Input: What measured MIC goes with CC(C)c1cc2c(c(O)c1O)[C@@]13CCCC(C)(C)[C@@H]1[C@H](OC3=O)[C@H]2O [ROSMANOL] ?
Output: 20
